Hello, the source for this data is patent US20260250337A1, in case you need it.

# Assay protocol: Circular dichroism, helical fraction (Lifson-Roig)
# Assay type: physicochemical
# Particulars: water; peptide 50 μmol L^−1
No end group written: not given here.
Reported Helical fraction (fH) Water values for a set of substances
Property name: Helical fraction (fH) Water

| Substance | Meas value |
| --- | --- |
| FLPLLWRVASGVF-NH2 [VT] | 0.21 |
| GLGALLNVIKSGL-NH2 [AV] | 0.08 |
| ILGAILNVLKSLG-NH2 [PV] | 0.13 |
| FLGAIGNVLKSIL-NH2 [TV] | 0.04 |
| SLGALINVLKSGG-NH2 [DV] | 0.11 |
| SLLSLIRKLIT-NH2 [Decoralin, reference compound] | 0.05 |
| FLGALWNVAKSVF-NH2 [VmCT1, reference compound] | 0.05 |
| FLPLIGRVLSGIL-NH2 [Temporin A, reference compound] | 0.08 |

###

# Assay protocol: Resistance to degradation in fetal bovine serum
# Type: in vitro ADME
# Particulars: bovine, fetal bovine serum, 25% in water, fetal bovine serum 25% in water, 37° C., 4 h; read-out: remaining peptide, 4 h
No end group written: not given here.
Reported remaining at 4 h values for a set of substances

| Substance | remaining at 4 h |
| --- | --- |
| GLGALLNVIKSGL-NH2 [AV] | ~40% |
| SLGALINVLKSGG-NH2 [DV] | ~50% |

###

# Assay protocol: Circular dichroism, helical fraction (Lifson-Roig)
# Type: physicochemical
# Particulars: TFE in water (3:2, v:v); peptide 50 μmol L^−1
# Method: Method. Circular dichroism (CD) assays were performed with a Spectropolarimeter Jasco Mod. J-815 (JascoCorp). […]
No end group written: not given here.
Reported Helical fraction (fH) TFE/Water values for a set of substances

| Substance | Helical fraction (fH) TFE/Water |
| --- | --- |
| FLGALWNVAKSVF-NH2 [VmCT1, reference compound] | 0.30 |
| FLPLLWRVASGVF-NH2 [VT] | 1.00 |
| ILGAILNVLKSLG-NH2 [PV] | 0.68 |
| FLPLIGRVLSGIL-NH2 [Temporin A, reference compound] | 0.65 |
| SLGALINVLKSGG-NH2 [DV] | 0.90 |
| GLGALLNVIKSGL-NH2 [AV] | 0.42 |
| FLGAIGNVLKSIL-NH2 [TV] | 0.50 |
| SLLSLIRKLIT-NH2 [Decoralin, reference compound] | 0.29 |

###

Reported MIC C. albicans MDM8 values for a set of substances
# Test system: C. albicans MDM8
# Assay protocol: Liquid growth inhibition assay, MIC (antifungal)
# Format: cell-based, Candida albicans
# Particulars: 37° C., 24 h
# Experimental: Initially, the antimicrobial activity was determined by liquid growth inhibition assays, as previously described by Pedron et al.^62. Briefly, Peptone Broth and Potato Dextrose Broth (Invitrogen) were used for antibacterial and antifungal assays, respectively. […]
No end group written: not given here.
Property name: MIC C. albicans MDM8 (µM)

| Substance | Meas value |
| --- | --- |
| FLGALWNVAKSVF-NH2 [VmCT1, reference compound] | 12.5 |
| ILGAILNVLKSLG-NH2 [PV] | 12.5 |
| SLLSLIRKLIT-NH2 [Decoralin, reference compound] | 0.8 |
| FLPLIGRVLSGIL-NH2 [Temporin A, reference compound] | 25 |
| H-GLLKRIKTLL-NH2 [Anoplin, reference compound] | 1.6 |
| FLGAIGNVLKSIL-NH2 [TV] | 25 |

###

# Test system: E. coli AIC222
# Assay protocol: Broth microdilution MIC, ESKAPE pathogens
# Type: cell-based
# Particulars: LB, 37° C., 24 h
No end group written: not given here.
Reported MIC E. coli AIC222 values for a set of substances
Property name: MIC E. coli AIC222

| Substance | Test target | Meas value |
| --- | --- | --- |
| FLGALWNVAKSVF-NH2 [VmCT1, reference compound] | E. coli AIC222 | 16 µM |
| FLPLIGRVLSGIL-NH2 [Temporin A, reference compound] | E. coli AIC222 | 32 µM |
| FLGTLWGGAKGVF-NH2 [VP] | E. coli AIC222 | 128 µM |
| FLPLLWRVASGVF-NH2 [VT] | E. coli AIC222 | 32 µM |
| ILGAILNVLKSLG-NH2 [PV] | E. coli AIC222 | 16 µM |
| ILGTILGLLKGL-NH2 [Protonectin, reference compound] | E. coli AIC222 | 8 µM |
| FLGAIGNVLKSIL-NH2 [TV] | E. coli AIC222 | 8 µM |

###

Reported Helical fraction (fH) SDS values for a set of substances
# Assay protocol: Circular dichroism, helical fraction (Lifson-Roig)
# Type: physicochemical
# Particulars: SDS 20 mmol L^−1 in water; peptide 50 μmol L^−1
No end group written: not given here.

| Substance | Helical fraction (fH) SDS |
| --- | --- |
| FLPLLWRVASGVF-NH2 [VT] | 0.82 |
| FLGAIGNVLKSIL-NH2 [TV] | 0.28 |
| SLGALINVLKSGG-NH2 [DV] | 0.62 |
| GLGALLNVIKSGL-NH2 [AV] | 0.31 |
| ILGAILNVLKSLG-NH2 [PV] | 0.60 |
| FLPLIGRVLSGIL-NH2 [Temporin A, reference compound] | 0.47 |
| FLGALWNVAKSVF-NH2 [VmCT1, reference compound] | 0.17 |
| SLLSLIRKLIT-NH2 [Decoralin, reference compound] | 0.22 |

###

# Assay protocol: Circular dichroism, helical fraction (Lifson-Roig)
# Assay type: physicochemical
# Particulars: PBS 10 mmol L^−1, pH 7.4; peptide 50 μmol L^−1
No end group written: not given here.
Property name: Helical fraction (fH) PBS

| Substance | Property name | Meas value |
| --- | --- | --- |
| FLPLLWRVASGVF-NH2 [VT] | Helical fraction (fH) PBS | 0.18 |
| SLLSLIRKLIT-NH2 [Decoralin, reference compound] | Helical fraction (fH) PBS | 0.06 |
| FLGAIGNVLKSIL-NH2 [TV] | Helical fraction (fH) PBS | 0.04 |
| ILGAILNVLKSLG-NH2 [PV] | Helical fraction (fH) PBS | 0.08 |
| GLGALLNVIKSGL-NH2 [AV] | Helical fraction (fH) PBS | 0.05 |
| SLGALINVLKSGG-NH2 [DV] | Helical fraction (fH) PBS | 0.12 |
| FLPLIGRVLSGIL-NH2 [Temporin A, reference compound] | Helical fraction (fH) PBS | 0.07 |
| FLGALWNVAKSVF-NH2 [VmCT1, reference compound] | Helical fraction (fH) PBS | 0.03 |

###

Reported remaining at 2 h values for a set of substances
# Assay protocol: Resistance to degradation in fetal bovine serum
# Type: in vitro ADME
# Particulars: bovine, fetal bovine serum, 25% in water, fetal bovine serum 25% in water, 37° C., 2 h; read-out: remaining peptide, 2 h
No end group written: not given here.
Property name: remaining at 2 h

| Substance | Property name | Meas value |
| --- | --- | --- |
| GLGALLNVIKSGL-NH2 [AV] | remaining at 2 h | ~40% |
| SLGALINVLKSGG-NH2 [DV] | remaining at 2 h | ~50% |
| FLGALWNVAKSVF-NH2 [VmCT1, reference compound] | remaining at 2 h | < 10% |
| H-GLLKRIKTLL-NH2 [Anoplin, reference compound] | remaining at 2 h | ~10% |
| FLGTLWGGAKGVF-NH2 [VP] | remaining at 2 h | < 10% |
| SLLSLIRKLIT-NH2 [Decoralin, reference compound] | remaining at 2 h | < 30% |

###

Reported Helical fraction (fH) POPC:DOPE values for a set of substances
# Assay protocol: Circular dichroism, helical fraction (Lifson-Roig)
# Assay type: physicochemical
# Particulars: POPC:DOPE 3:1, mol:mol, 10 mmol L^−1; peptide 50 μmol L^−1
No end group written: not given here.
Property name: Helical fraction (fH) POPC:DOPE

| Substance | Meas value |
| --- | --- |
| FLGALWNVAKSVF-NH2 [VmCT1, reference compound] | 0.55 |
| SLGALINVLKSGG-NH2 [DV] | 0.11 |
| GLGALLNVIKSGL-NH2 [AV] | 0.08 |
| SLLSLIRKLIT-NH2 [Decoralin, reference compound] | 0.19 |
| FLPLLWRVASGVF-NH2 [VT] | 0.42 |
| FLGAIGNVLKSIL-NH2 [TV] | 0.35 |
| FLPLIGRVLSGIL-NH2 [Temporin A, reference compound] | 0.44 |
| ILGAILNVLKSLG-NH2 [PV] | 0.28 |
